As shown below, each of these compounds has a reported Population Hoechst High Intensity Objects (%) value.
Test system: HEK-293T
Assay: Multiplex assay against HEK293T
Type: toxicity, cell-based
Details: human, 24 h, 1 µM, compound concentration 1 uM, replicate 1
State the answer as a number, implicitly in %.

> print(dat)
                           substance.smiles  result.value
1  NC(=O)c1ccc2nc(-c3ccc(C4(N)CCC4)cc3)c(-c3ccccc3)n2n1            15

Please look up its Population Hoechst High Intensity Objects (%): `N#CCNC(=O)c1ccc(-c2ccnc(Nc3ccc(N4CCOCC4)cc3)n2)cc1`
9

Please look up its Population Hoechst High Intensity Objects (%): `Cl.NC[C@@H]1O[C@H](C23CC4CC(CC(C4)C2)C3)Cc2c1ccc(O)c2O`
13
